The measured values listed here are drawn from patent US20090028925A1.

- target or test system: human thyroid hormone receptors TRα1 (Homo sapiens)
- Construct: made in house; host or cells: Sf9 insect cells (baculovirus)
- Sequence (P10827 1-410 isoform P10827-2): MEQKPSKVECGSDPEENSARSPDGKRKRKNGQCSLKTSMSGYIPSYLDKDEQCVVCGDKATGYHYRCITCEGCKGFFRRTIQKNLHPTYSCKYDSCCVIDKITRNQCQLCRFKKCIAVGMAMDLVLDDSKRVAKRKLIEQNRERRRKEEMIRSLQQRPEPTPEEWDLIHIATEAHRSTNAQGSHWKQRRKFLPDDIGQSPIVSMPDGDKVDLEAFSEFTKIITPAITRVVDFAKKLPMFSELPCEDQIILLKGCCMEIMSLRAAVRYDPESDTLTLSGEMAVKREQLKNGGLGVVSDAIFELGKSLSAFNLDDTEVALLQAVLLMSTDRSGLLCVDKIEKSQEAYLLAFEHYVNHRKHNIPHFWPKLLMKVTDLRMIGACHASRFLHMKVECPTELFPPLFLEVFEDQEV
- Sequence (P19793 whole entry partner): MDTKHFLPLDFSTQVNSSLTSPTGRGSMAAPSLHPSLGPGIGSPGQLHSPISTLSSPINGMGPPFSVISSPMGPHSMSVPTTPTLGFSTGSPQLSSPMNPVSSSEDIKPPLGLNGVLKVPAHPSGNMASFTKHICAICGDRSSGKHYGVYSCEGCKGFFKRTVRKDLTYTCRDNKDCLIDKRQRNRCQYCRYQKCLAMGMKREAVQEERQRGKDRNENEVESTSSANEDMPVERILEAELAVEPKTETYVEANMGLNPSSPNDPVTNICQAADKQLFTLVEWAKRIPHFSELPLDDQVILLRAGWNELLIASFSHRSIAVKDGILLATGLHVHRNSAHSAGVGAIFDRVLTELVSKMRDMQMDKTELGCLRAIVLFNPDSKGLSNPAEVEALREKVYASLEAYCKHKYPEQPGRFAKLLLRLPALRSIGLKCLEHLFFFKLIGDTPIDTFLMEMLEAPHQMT
- assay overview: Receptor binding to TRα1 (gel filtration and scintillation proximity assay, labeled T3)
- recorded conditions: SPA data; read-out: Ki TRα
readout kind: Ki (nM)

Cc1cc(OC[P@]2(=O)OCC[C@H](c3ccc(Cl)cc3)O2)cc(C)c1Cc1ccc(O)c(C(C)C)c1 [Compound 13-6-cis]	4710
O=P(O)(O)CCc1cc(I)c(Oc2ccc(O)c(I)c2)c(I)c1 [Compound 3]	46
CC(C)c1cc(Oc2c(Br)cc(CP(C)(=O)O)cc2Br)ccc1O [Compound 71]	4
Cc1cc(OC[P@]2(=O)OCC[C@@H](c3cc(Cl)cc(Cl)c3)O2)cc(C)c1Cc1ccc(O)c(C(C)C)c1 [Compound 13-7-trans]	1550
Cc1cc(OCP(=O)(O)O)cc(C)c1Cc1ccc(O)c(C(=O)NCCc2ccccc2)c1 [Compound 37]	294
Cc1cc(OCP(=O)(OCOC(=O)OC(C)C)OCOC(=O)OC(C)C)cc(C)c1Cc1ccc(O)c(C(C)C)c1 [Compound 12-3]	738
